Catalogue of MC1R/MC4R cAMP EC50 ratio readings, one per entry.
# target or test system: human MC4R (Homo sapiens)
# Construct: expressed in transfected cells
# test method notes: Functional cAMP assay (CisBio HTRF) in BHK cells expressing human MC4R
# Type: cell-based
# condition notes: MC1R cAMP EC50 divided by MC4R cAMP EC50
Positions of bridges follow the written chain, without caps; N, C: chain ends. Non-standard residues stand in square brackets, D forms with d. Residues, ends and D or L forms follow the SMILES beside them. Cit = NC(=O)NCCC[C@H](N)C(=O)O; Thz = O=C(O)[C@@H]1CSCN1
// print number alone

* C[C@@H]1NC(=O)[C@@H]2CSSC[C@H](NC(=O)[C@H](Cc3c[nH]c4ccccc34)NC(=O)[C@H](CCCNC(N)=O)NC(=O)[C@@H](Cc3ccccc3)NC(=O)[C@H](Cc3c[nH]cn3)NC1=O)C(=O)N[C@@H](C)C(=O)N[C@@H](CCCCN)C(=O)N[C@@H](CCCCN)C(=O)N[C@@H](CCCCN)C(=O)N[C@@H](Cc1c[nH]c3ccccc13)C(=O)N2 [Chem. 48] (cyclo(AH[dF][Cit]WCAKKKWC); disulfide 6-12) | 152
* N=C(N)NCCC[C@@H]1NC(=O)[C@@H](Cc2ccccc2)NC(=O)[C@H](Cc2c[nH]cn2)NC(=O)[C@@H]2CSSC[C@H](NC(=O)[C@H](CCC(=O)O)NC(=O)[C@H](Cc3c[nH]c4ccccc34)NC1=O)C(=O)N[C@@H](Cc1c[nH]cn1)C(=O)N[C@H](Cc1ccccc1)C(=O)N[C@@H](CCCNC(=N)N)C(=O)N[C@@H](Cc1c[nH]c3ccccc13)C(=O)N[C@@H](CCC(=O)O)C(=O)N2 [Chem. 1] (cyclo(CH[dF]RWECH[dF]RWE); disulfide 1-7) | 13

Next item in the queue.
Please give the measured MC1R/MC4R cAMP EC50 ratio for this compound: C[C@@H]1NC(=O)[C@@H]2CSSC[C@H](NC(=O)[C@H](Cc3c[nH]c4ccccc34)NC(=O)[C@H](CCCCN)NC(=O)[C@H](CCCCN)NC(=O)[C@H](CCCCN)NC1=O)C(=O)N1CSC[C@H]1C(=O)N[C@@H](Cc1c[nH]cn1)C(=O)N[C@H](Cc1ccccc1)C(=O)N[C@@H](Cc1c[nH]cn1)C(=O)N[C@@H](Cc1c[nH]c3ccccc13)C(=O)N2 [Chem. 81] (cyclo(AKKKWC[Thz]H[dF]HWC); disulfide 6-12)
957

###

# target or test system: human MC4R (Homo sapiens, UniProt P32245)
# Construct: expressed in transfected cells
# Sequence (P32245 whole entry): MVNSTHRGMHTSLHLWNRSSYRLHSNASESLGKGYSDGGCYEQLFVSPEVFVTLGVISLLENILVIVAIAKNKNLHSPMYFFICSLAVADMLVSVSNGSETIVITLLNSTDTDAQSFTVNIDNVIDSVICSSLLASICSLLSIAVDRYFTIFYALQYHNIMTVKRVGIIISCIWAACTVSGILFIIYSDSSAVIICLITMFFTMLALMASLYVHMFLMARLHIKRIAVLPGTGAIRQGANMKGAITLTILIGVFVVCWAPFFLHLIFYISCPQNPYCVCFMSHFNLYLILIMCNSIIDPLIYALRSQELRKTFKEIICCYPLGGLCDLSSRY
# test method notes: Functional cAMP assay (CisBio HTRF) in BHK cells expressing human MC4R
# Assay type: cell-based
# condition notes: MC1R cAMP EC50 divided by MC4R cAMP EC50
# Protocol: In order to assess the potency of the compounds on human MC1R and human MC4R cAMP signalling was measured. cAMP induction was measured by c-AMPdynamic2 assay, HTRF 62AM4PEC system from CisBio for the human MC1R and human MC4R according to the protocol provided by the vendor. BHK cells expressing the human MC1 or MC4 receptor were generated by stable transfection with expression vectors encoding the cDNA of either MC1R or MC4R. […]
Positions of bridges follow the written chain, without caps; N, C: chain ends. Non-standard residues stand in square brackets, D forms with d. Residues, ends and D or L forms follow the SMILES beside them.
Each entry below lists one item and its recorded MC1R/MC4R cAMP EC50 ratio value.
Keep the answer to the number alone.

• C[C@@H]1NC(=O)[C@@H]2CSSC[C@H](NC(=O)[C@H](Cc3c[nH]c4ccccc34)NC(=O)[C@H](Cc3c[nH]cn3)NC(=O)[C@@H](Cc3ccccc3)NC(=O)[C@H](Cc3c[nH]cn3)NC1=O)C(=O)N[C@@H](C)C(=O)N[C@@H](CCCCN)C(=O)N[C@@H](CCCCN)C(=O)N[C@@H](CCCCN)C(=O)N[C@@H](Cc1c[nH]c3ccccc13)C(=O)N2 [Chem. 60] (cyclo(AH[dF]HWCAKKKWC); disulfide 6-12) = 313

Dear colleague, I am looking for the recorded MC1R/MC4R cAMP EC50 ratio of the following compound: C[C@@H]1NC(=O)[C@H](C)NC(=O)[C@@H]2CSSC[C@H](NC(=O)[C@H](CCCNC(=N)N)NC(=O)[C@H](C)NC(=O)[C@@H](C)NC1=O)C(=O)N[C@@H](C)C(=O)N[C@@H](Cc1c[nH]cn1)C(=O)N[C@H](Cc1ccccc1)C(=O)N[C@@H](CCCNC(=N)N)C(=O)N[C@@H](Cc1c[nH]c3ccccc13)C(=O)N2 [Chem. 90] (cyclo(AA[dA]ARCAH[dF]RWC); disulfide 6-12)
65

Source of measurements: patent US20200223889A1
